test system: DLD-1 colon; assay: NCI tumour cell line growth inhibition, 48 h
quantity.kind: TGI

The cases that follow already have their TGI on record.
{"compound": "CCC12CCCN(Cc3ccccc3)C1c1c(n(C)c3ccccc13)[C@H](C(=O)OC)C2 (some centres not stated)", "TGI": "> 239 µM"}
{"compound": "COc1ccc(/C(=N\\N=C(N)N)C(c2ccc(OC)cc2)C2OC(=O)c3ccccc32)cc1 (configuration not stated)", "TGI": "> 100 µM"}
{"compound": "COc1ccc(NC(=O)C2C(=O)N(c3ccc(OC)cc3)C(=O)/C2=N\\N)cc1 (configuration not stated)", "TGI": "> 100 µM"}

Check the records and state TGI for CCCCCCC[C@@H](O)CC(=O)NC(CC(C)C)C(=O)NC(CCC(=O)O)C(=O)NC1C(=O)NC(C(C)C)C(=O)NC(CC(C)C)C(=O)NC(CO)C(=O)NC(CC(C)C)C(=O)NC(CO)C(=O)NC(C(C)CC)C(=O)OC1C (some centres not stated)
3.04 µM

Please indicate TGI recorded for Cc1ccc(O)c(N=Nc2ccc(S(=O)(=O)O)cc2)n1
> 100 µM

Read the entry Cc1cccc(C)c1NC(=O)CCC(=O)CC(=O)C(C)C and write its reported TGI.
> 100 µM

Determine from records and report TGI for Cc1cccc(C)c1NC(=O)C(=O)C(C#N)c1ccccc1Cl (configuration not stated)
> 100 µM

In one line, give reported TGI of the entry C/C(O)=C/c1nc2ccccc2[nH]1 .
> 100 µM

Tell me measured TGI for O=Cc1cc2c(s1)C(=O)c1sccc1C2=O please.
1.07 µM
